tested on: OVCAR-8 ovarian; experiment: NCI tumour cell line growth inhibition, 48 h; in the data active = GI50 below about 0.43 µM; inactive = the rest
Could you please pick one outcome from this set? TRUE (active), FALSE (inactive)

N#Cc1c(-c2ccccc2)nc(SCC2CO2)nc1N1CCOCC1 (configuration not stated) :: FALSE

Test call for this molecule, please: CC(=O)NCCc1c2c(c3nccc4c3c1Nc1ccccc1-4)OCS2
FALSE

Test call for this molecule, please: COc1cc(C2c3[nH]c4ccccc4c3C[C@H]3COC(=O)N23)cc(OC)c1OC (some centres not stated)
TRUE

Test call for this molecule, please: O=C1C(Cl)=C(Nc2cccc(Cl)c2)C(=O)N1Cc1ccccc1
FALSE

###

test system: HOP-62 NSCLC; assay: NCI tumour cell line growth inhibition, 48 h; in the data active = GI50 below about 0.43 µM; inactive = the rest
Could you please pick one outcome from this set? active, inactive

Illustrative cases are given below, each with its answer.
CC12CCC3C(CCC4Cc5[nH]c6ccccc6c5CC43C)C1CCC2O (stereo not given) :: active
COC(=O)CCC(=O)C(=O)OC :: inactive
CCNC(=O)[C@@H]1CCCN2C(=O)CC[C@H](NC(=O)[C@H](Cc3ccc(OP(=O)(O)O)cc3)NC(C)=O)C(=O)N12 :: inactive

Test call for this compound, please: C=CC[n+]1c(/C=C/C=C2\N(C)c3ccccc3C2(C)C)sc2ccc(OC)cc21
active

Test call for this compound, please: Cn1cc(-c2ccc3c(Nc4cccc(NC(=O)Nc5cccc(F)c5)c4)ncnc3c2)cn1
inactive
